Hey, just so you know, these numbers are from ChEMBL document CHEMBL3988442.

# Organism: Homo sapiens
# experimentalDetails: To identify inhibition of the IFN signalling (Jak-Stat) pathway via expression of an eGFP reporter gene under the control of an IFN-stimulated response element (ISRE) containing MxA promoter.
# Type: functional
# Design: scale not given: direction of the effect not stated beside the values
# conditionDetails: 30 µM
Measured Percent Effect values are reported for all entries that follow.
Reply numerically in %, unit not repeated.

[
  {
    "molecule": "O=C1CCSCC(C(=O)N2CCCC2)N1 (stereo not given)",
    "valueUnits": "%",
    "measuredNumber": -3.33
  },
  {
    "molecule": "CC(=O)NCC(=O)N1Cc2nccn2CC(CN2CCCC2)C1 (stereo not given)",
    "valueUnits": "%",
    "measuredNumber": 5.21
  },
  {
    "molecule": "N#Cc1ncn(CC(=O)Nc2cc(Cl)ccc2F)n1",
    "valueUnits": "%",
    "measuredNumber": -12.8
  },
  {
    "molecule": "Cc1cc2nc(SCC(=O)N3CCOCC3)n(CC(C)C)c(=O)c2[nH]1",
    "valueUnits": "%",
    "measuredNumber": -10.6
  }
]

Shift focus to the following entry.
Entry under test: CC(C)Nc1nc(N2CCCC2)nc2c1CN(C(C)C)CC2 . Its Percent Effect was -15.2

----------
# targetUnderTest: Ubiquitin-activating enzyme e1, putative (Leishmania donovani (strain BPK282A1))
# experimentalDetails: Leishmania donovani Ubiquitin Activating Enzyme (LdE1)
# Format: functional
# Parameters: scale not given: direction of the effect not stated beside the values
# conditionDetails: 30 µM
Results with a measured potency or affinity are listed apart.
Measured Percent Effect values are reported for all entries that follow.
Reply numerically in %, unit not repeated.

[
  {
    "compound": "Cc1cc(-c2cnc(N3CCCC(C)C3)nc2-c2cccnc2C)on1 (stereo unspecified)",
    "Percent Effect / %": 1.35
  },
  {
    "compound": "CCOc1ccnc(N2CCN(C(=O)c3cccnc3O)CC2)n1",
    "Percent Effect / %": 17.7
  },
  {
    "compound": "CCN(C)c1ncnc2c1CCN(C(=O)N1CCCC1)CC2",
    "Percent Effect / %": 10.7
  },
  {
    "compound": "Cn1cccc1C(=O)N1CCC2(CC1)CN(c1ccccn1)CCO2",
    "Percent Effect / %": 5.2
  }
]

Entry under test: Cc1nnc(NC(=O)NCc2cc(F)cc(F)c2)s1 . Its Percent Effect was 21.1

Entry under test: Cc1cc(C)cc(N(C)S(=O)(=O)c2cc(C(=O)O)cs2)c1 . Its Percent Effect was 5.41

Entry under test: O=C(Cn1cc(I)cn1)N1CCCC1 . Its Percent Effect was -1.33

Entry under test: CC(O)CN1CCN(Cc2cccc(C(=O)N(C)C)c2)CC1 (stereo unspecified) . Its Percent Effect was -141

Entry under test: CCN(CC1CN(Cc2ncc[nH]2)CCO1)c1cccnn1 (stereo unspecified) . Its Percent Effect was 8

Entry under test: Cc1nc(C)c2c(n1)CCN(C(=O)CC1CC1)CC2 . Its Percent Effect was 10.8

Entry under test: CC[C@H](C)[C@H](NC(=O)c1ccccc1-n1cnnn1)C(=O)OC . Its Percent Effect was -4

Entry under test: c1cnc(N2CCOC3(CCN(CC4CCCCC4)CC3)C2)nc1 . Its Percent Effect was 13.3

Entry under test: Cc1cn2c(n1)CCC(NC(=O)c1cc(C(C)C)no1)C2 (stereo unspecified) . Its Percent Effect was 10.4

Entry under test: O=C(c1ccsc1)N1CCCC(c2cc(C(F)(F)F)[nH]n2)C1 (stereo unspecified) . Its Percent Effect was 5.26
